I'd appreciate it if you could supply pIC50 values for the items below.
target: human norepinephrine transporter (Homo sapiens (Human), UniProt P23975); assay: hNET reuptake assay (HEK-hNET, FDSS6000); format: cell-based; settings: HEK-hNET cells; Table 4
Sequence (P23975 whole entry): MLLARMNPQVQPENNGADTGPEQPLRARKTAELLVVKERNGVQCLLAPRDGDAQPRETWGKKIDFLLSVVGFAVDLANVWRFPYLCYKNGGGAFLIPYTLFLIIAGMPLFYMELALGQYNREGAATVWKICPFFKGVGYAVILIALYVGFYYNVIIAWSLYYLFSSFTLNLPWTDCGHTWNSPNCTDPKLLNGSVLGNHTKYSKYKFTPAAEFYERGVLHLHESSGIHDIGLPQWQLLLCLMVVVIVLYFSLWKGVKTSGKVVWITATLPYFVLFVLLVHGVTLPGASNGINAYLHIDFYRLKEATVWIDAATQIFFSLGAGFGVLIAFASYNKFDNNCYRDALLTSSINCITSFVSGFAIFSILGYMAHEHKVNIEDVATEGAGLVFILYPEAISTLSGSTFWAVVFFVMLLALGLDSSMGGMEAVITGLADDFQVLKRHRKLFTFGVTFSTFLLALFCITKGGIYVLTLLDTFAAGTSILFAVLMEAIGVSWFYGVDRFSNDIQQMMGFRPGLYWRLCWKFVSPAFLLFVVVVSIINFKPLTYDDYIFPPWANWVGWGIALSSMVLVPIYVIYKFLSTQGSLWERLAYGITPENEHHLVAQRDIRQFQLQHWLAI
Structures can show the parent of a compound that is named as a salt.
# pIC50 is unitless: minus log10 of the molar concentration; print number only

IN: What value of pIC50 has been reported for the following molecule? CC(C)(C)OC(c1ccc(Cl)c(Cl)c1)C1CNC1.Cl (stereo not drawn) [KHG27252, hydrochloride]
OUT: 7.02

IN: Consider the molecule shown here: Cl.Clc1ccc(C(OC2CCC2)C2CNC2)cc1Cl (stereo not drawn) [KHG27253, hydrochloride] What is its recorded pIC50?
OUT: 7.96

IN: Entry Cl.Clc1ccc(C(OC2CCCCC2)C2CNC2)cc1Cl (stereo not drawn) [KHG27255, hydrochloride] : reported pIC50 = ?
OUT: 7.85

IN: For CN1CC(C(Oc2ccccc2)c2ccc3ccccc3c2)C1 (stereo not drawn) , what is its reported pIC50?
OUT: 7.06

IN: Could you tell me which pIC50 is on file for CCCC(Oc1ccc2ccccc2c1)C1CNC1.Cl (stereo not drawn) [KHG27284, hydrochloride] ?
OUT: 7.10

IN: Which pIC50 is listed for Clc1ccc(C(OC2CCCC2)C2CNC2)cc1Cl (stereo not drawn) [KHG27254, hydrochloride] ?
OUT: 7.80

====

target: human dopamine transporter (Homo sapiens (Human), UniProt Q01959); assay: hDAT binding assay ([3H]WIN35,428); conditions: read-out: hDAT binding assay %-inhibition (10 uM)
Sequence (Q01959 whole entry): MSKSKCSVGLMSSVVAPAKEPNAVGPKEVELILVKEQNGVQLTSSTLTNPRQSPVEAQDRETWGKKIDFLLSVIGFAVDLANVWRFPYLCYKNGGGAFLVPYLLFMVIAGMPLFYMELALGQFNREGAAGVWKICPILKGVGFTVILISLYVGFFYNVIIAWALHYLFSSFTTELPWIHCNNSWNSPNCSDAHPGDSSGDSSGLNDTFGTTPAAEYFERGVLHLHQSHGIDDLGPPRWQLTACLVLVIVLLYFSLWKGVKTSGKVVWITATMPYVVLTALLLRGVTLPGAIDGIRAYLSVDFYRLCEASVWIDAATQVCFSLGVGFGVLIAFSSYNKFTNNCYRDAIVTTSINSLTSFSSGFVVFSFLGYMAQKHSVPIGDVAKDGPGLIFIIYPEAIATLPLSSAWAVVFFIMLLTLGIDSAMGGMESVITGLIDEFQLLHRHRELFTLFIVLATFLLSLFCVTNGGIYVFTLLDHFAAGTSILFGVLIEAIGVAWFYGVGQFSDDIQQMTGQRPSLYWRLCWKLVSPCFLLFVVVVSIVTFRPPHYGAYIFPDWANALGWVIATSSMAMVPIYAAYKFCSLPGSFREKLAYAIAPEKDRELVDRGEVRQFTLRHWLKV
OBSERVABLE: inhibition at 10 µM (%)
Reply numerically in %, unit not repeated.

IN: Look at this compound and give its reported inhibition at 10 µM. Cl.c1ccc(COC(c2ccccc2)C2CNC2)cc1 (stereo not drawn) [KHG26768, hydrochloride]
OUT: 90

IN: Fill blank: measured inhibition at 10 µM of the compound CCOC(c1ccc(Cl)c(Cl)c1)C1CNC1.Cl (stereo not drawn) [KHG26757, hydrochloride] is ____.
OUT: 58

IN: Query: inhibition at 10 µM; subject: CCOC(c1ccc(Cl)cc1)C1CNC1.Cl (stereo not drawn) [KHG26754, hydrochloride]
OUT: 76

====

Exercise: state measured pIC50 for each of the compounds provided.
target: human dopamine transporter (Homo sapiens (Human), UniProt Q01959); assay: hDAT binding assay ([3H]WIN35,428); settings: membrane from CHO-K1 cells, 8 nM [3H]WIN35,428;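 further: displacement of the radioligand from the transporter membranes, incubated 120 min at 4 °C in Tris-HCl buffer with NaCl, pH 7.4, measured by filter-bound radioactivity counting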
// pIC50 here means minus log10 of the molar concentration (mol/L)

IN: For human dopamine transporter (Homo sapiens (Human), UniProt Q01959), provide pIC50 of Cc1ccc(OC(c2ccc(Cl)c(Cl)c2)C2CNC2)cc1.Cl (stereo not drawn) [KHG26776, hydrochloride] please.
OUT: 6.77

IN: Any idea what pIC50 came out for CCOC(c1ccc(Cl)cc1)C1CNC1.Cl (stereo not drawn) [KHG26754, hydrochloride] on human dopamine transporter (Homo sapiens (Human), UniProt Q01959)?
OUT: 5.71

IN: Form entry - test system: human dopamine transporter (Homo sapiens (Human), UniProt Q01959); read-out: pIC50; compound: Cl.O=C(OC(c1ccccc1)C1CNC1)c1ccccc1 (stereo not drawn) [KHG26771, hydrochloride]
OUT: 5.77
